Where these numbers come from: patent US20250353873A1

Recorded APOE RNA (% control) Cortex by entry
# Test system: human APOE RNA
# TEST_SUMMARY: Activity in APOE C57BL/6NTac-Apoeem7250 knock-in mice, single ICV bolus, 16 weeks (Example 12)
# Assay type: in vivo
# ASSAY_CONDITIONS: cortex; single ICV bolus 300 μg; 16 weeks post treatment; normalized to mouse Ppia
Strand notation (5' to 3'): a small letter for the sugar, then the base; units joined by * are phosphorothioate-linked, units joined directly phosphodiester-linked; [ ] holds rarer units or linkages, { } end groups; capitals alone tell only the bases. [ms] = mesyl phosphoramidate linkage; e = 2'-O-(2-methoxyethyl) (MOE); k = constrained ethyl (cEt); [5mC] = 5-methylcytosine; d = 2'-deoxy (DNA)
OBSERVED_PROPERTY: APOE RNA (% control) Cortex

| SUBSTANCE | OBSERVED_PROPERTY | UNITS_TEXT | MEASURED_RESULT |
| --- | --- | --- | --- |
| 1693066: 5-10-5 MOE gapmer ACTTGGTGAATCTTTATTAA, linkages sssssssszzsssssooss (antisense eA*e[5mC]*eT*eT*eG*dG*dT*dG*dA[ms]dA[ms]dT*d[5mC]*dT*dT*dT*eAeTeT*eA*eA) [compound 1693066] | APOE RNA (% control) Cortex | % control | 88 |
| 1693059: 5-10-5 MOE gapmer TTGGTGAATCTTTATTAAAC, linkages ssssszzzssssszsssss (antisense eT*eT*eG*eG*eT*dG[ms]dA[ms]dA[ms]dT*d[5mC]*dT*dT*dT*dA[ms]dT*eT*eA*eA*eA*e[5mC]) [compound 1693059] | APOE RNA (% control) Cortex | % control | 89 |
| 1778113 (eA*e[5mC]eTeTkG*kG*dT*dG[ms]dA[ms]dA*dT*d[5mC]*dT*dT*dT*dA[ms]eT*eT*eA*eA; antisense) [Compound 1778113] | APOE RNA (% control) Cortex | % control | 46 |
| 1778130: modified oligonucleotide complementary to human APOE RNA (eA*e[5mC]eTeTeG*kG*dT*dG[ms]dA[ms]dA*dT*d[5mC]*dT*dT*dT*dA[ms]kTkT*eA*eA; antisense) [compound 1778130] | APOE RNA (% control) Cortex | % control | 34 |
| 1736532 (e[5mC]*eT*eT*eG*kG*kTdG[ms]dA[ms]dA[ms]dT*d[5mC]*dT*dT*dT*dA[ms]dT*eT*eA*eA*eA; antisense) [Compound 1736532] | APOE RNA (% control) Cortex | % control | 34 |
| 1785617: modified oligonucleotide complementary to human APOE RNA (k[5mC]*dT[ms]dT[ms]kG*dG[ms]kT*dG[ms]dA[ms]dA[ms]dT[ms]d[5mC]*dT*dT*dT*dA*dT*kT*kA*dA[ms]kA; antisense) [compound 1785617] | APOE RNA (% control) Cortex | % control | 37 |
